Entry source: paper PMC6521355

molecular target: S. linguale α-NAGA (SlNAGA) (Spirosoma linguale); construct: E. coli BL21(DE3); monomer 48215 Da calculated, 96 kDa dimer; primers encode N-term MPSLYTTAQ and C-term PIFGLTDVY; test: Product inhibition of 4-nitrophenyl substrate hydrolysis, absorbance at […] nm, competitive model fit; settings: 20 mM sodium phosphate pH 7.0, ~22 °C
Sequence (D2QUW2 1-435): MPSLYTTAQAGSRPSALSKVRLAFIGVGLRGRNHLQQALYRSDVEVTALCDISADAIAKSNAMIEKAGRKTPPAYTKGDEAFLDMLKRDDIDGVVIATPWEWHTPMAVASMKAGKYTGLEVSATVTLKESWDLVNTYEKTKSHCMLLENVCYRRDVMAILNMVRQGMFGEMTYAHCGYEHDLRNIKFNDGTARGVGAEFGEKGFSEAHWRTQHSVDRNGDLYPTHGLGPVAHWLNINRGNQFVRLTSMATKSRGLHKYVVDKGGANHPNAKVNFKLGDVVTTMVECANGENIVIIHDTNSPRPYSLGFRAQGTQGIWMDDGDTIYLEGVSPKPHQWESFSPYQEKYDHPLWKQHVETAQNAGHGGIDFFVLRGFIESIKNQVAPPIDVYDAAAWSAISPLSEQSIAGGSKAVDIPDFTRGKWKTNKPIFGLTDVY

>  <compound>
CC(=O)N[C@H]1C(O)O[C@H](CO)[C@H](O)[C@@H]1O (stereo partly shown)

>  <target entity>
S. linguale α-NAGA (SlNAGA) (Spirosoma linguale)

>  <Ki / µM>
180

$$$$
